Collected GI50 values appear next to each entry.
Tested on: OVCAR-3 ovarian
Assay Info: NCI tumour cell line growth inhibition, 48 h

| Compound | GI50 |
| --- | --- |
| CN(C(=O)c1ccc(C(F)(F)F)cc1)c1ccc(Oc2ccc3c(c2)cc(C(=O)N2CCN(Cc4ccc(OC(F)F)cc4)CC2)n3C)nc1 | 11.3 µM |
| [Cl-].[La+3].[O-]/N=C(\c1ccccc1)c1ccccn1.[O-]/N=C(\c1ccccc1)c1ccccn1.[O-]/N=C(\c1ccccc1)c1ccccn1 | 39.2 µM |
| O=c1c2sccc2n(CC2COc3ccccc3O2)c(=O)n1O (centres undefined) | 10.4 µM |
| COc1cc2c3c(n(C)c(=O)c2cc1OC)-c1cc2c(cc1/C3=C\CCN)OCO2 | 0.564 µM |
